- testDescription: qHTS for Inhibitors of human tyrosyl-DNA phosphodiesterase 1 (TDP1): qHTS in cells in absence of CPT; also: nearly all actives have a fitted effect of over 55% in size
- conditionNotes: DT40 Tdp1-/- hTDP1 cells, no CPT, ATP luminescence, 48 h
About 64,000 (15%) of roughly 420,000 compounds were called active. Another 27% or so got no clear call; they are omitted. Calls follow the shape of the dose curve; as a rule, active = well fitted inhibition curve with a large enough effect; inconclusive = small, poorly fitted or top-dose-only effect; inactive = flat fitted curve, though single readings scatter. These entries were drawn from the full list.
Write down the outcome that applies. Available outcomes: active, inactive

Query :: Hi, sorry to bother you, what did the test record for Cc1nn(CC(=O)N2CCCCC2)c(=O)c2nn(-c3ccccc3)c(C)c12 ?
Result :: inactive

Query :: Hi, sorry to bother you, what did the test record for COc1ccc(-n2c(C)nc3c(cnn3-c3ccccc3)c2=O)cc1 ?
Result :: active

Query :: Hi, sorry to bother you, what did the test record for CCCCOc1ccc(C(=O)NCC(=O)OCC(=O)c2c(N)n(C)c(=O)n(C)c2=O)cc1 ?
Result :: inactive

Query :: Hi, sorry to bother you, what did the test record for CCOc1ccc(-n2cnc3c(=O)[nH]c(N)nc32)cc1 ?
Result :: inactive

Query :: Hi, sorry to bother you, what did the test record for C=CCOc1ccccc1NC(=O)CN1C(=O)CNC1=O ?
Result :: inactive

Query :: Hi, sorry to bother you, what did the test record for Cc1ccc(NC(=O)CSc2nc(CSc3ccc(C)cc3)cc(=O)[nH]2)cc1 ?
Result :: inactive

Query :: Hi, sorry to bother you, what did the test record for Cc1ccc(NS(=O)(=O)c2ccc3c(c2)NC(=O)CO3)cc1 ?
Result :: inactive

Query :: Hi, sorry to bother you, what did the test record for CN1CCc2nc(SC(C(=O)O)c3ccccc3)c(C#N)c(-c3cccs3)c2C1 (stereo not given) ?
Result :: inactive

Query :: Hi, sorry to bother you, what did the test record for CC(C)(C)NC(=O)CN1CCC(NC(=O)C23CC4CC(CC(C4)C2)C3)CC1 ?
Result :: inactive

Query :: Hi, sorry to bother you, what did the test record for COc1ccc(Oc2ncc3nc(-c4ccc(F)cc4)c(=O)n(C)c3n2)cc1 ?
Result :: inactive

Query :: Hi, sorry to bother you, what did the test record for NC(CSC12CC3CC(CC(C3)C1)C2)C(=O)O (stereo not given) ?
Result :: inactive

Query :: Hi, sorry to bother you, what did the test record for Nc1c(C(=O)Nc2ccc3c(c2)OCCO3)nnn1Cc1ccccc1 ?
Result :: inactive

Query :: Hi, sorry to bother you, what did the test record for COc1ccc(-n2c(C)nc3c(cnn3-c3ccc(F)cc3)c2=O)cc1 ?
Result :: active

Query :: Hi, sorry to bother you, what did the test record for COc1ccc(NC(=O)CCN2CCCC2)c(OC)c1 ?
Result :: inactive

Query :: Hi, sorry to bother you, what did the test record for Cc1cc2c(cc1S(=O)(=O)CCC(=O)NCc1ccccc1)OCC(=O)N2 ?
Result :: inactive

Query :: Hi, sorry to bother you, what did the test record for CCOC(=O)c1ccc(-n2c(C)nc3c(cnn3-c3ccccc3C)c2=O)cc1 ?
Result :: inactive

Query :: Hi, sorry to bother you, what did the test record for CC(C)=CCC/C(C)=C/CC/C(C)=C/CC/C(C)=C/CO ?
Result :: inactive

Query :: Hi, sorry to bother you, what did the test record for O=C(O)C1CCN(c2ncnc3ccc(-c4ccccc4C(F)(F)F)cc23)CC1 ?
Result :: inactive

Query :: Hi, sorry to bother you, what did the test record for CC(C)C[C@H](NC(=O)C1CCC(CNC(=O)[C@@H]2CCCN2C(=O)OC(C)(C)C)CC1)C(=O)O (stereo not given in full) ?
Result :: inactive

Query :: Hi, sorry to bother you, what did the test record for CC1CN(CC(=O)NC(C)c2ccccc2)CC(C)O1 (stereo not given) ?
Result :: inactive

Query :: Hi, sorry to bother you, what did the test record for Cc1ccccc1CNC(=O)CSc1nnc(C)c2c(C)n(-c3ccccc3)nc12 ?
Result :: inactive

Query :: Hi, sorry to bother you, what did the test record for O=C(CN1C2CCC1CC(NC(=O)C1CC1)C2)NCc1ccccc1 (stereo not given) ?
Result :: inactive

Query :: Hi, sorry to bother you, what did the test record for Nc1nc(CSc2nnnn2-c2ccccc2)nc(Nc2ccccc2)n1 ?
Result :: inactive

Query :: Hi, sorry to bother you, what did the test record for COc1ccc(OC)c(CNC(=O)Cn2nc(C)c3c(C)n(-c4ccc(C)cc4)nc3c2=O)c1 ?
Result :: active

Query :: Hi, sorry to bother you, what did the test record for Cc1ccc(Oc2cnn(-c3ccccc3)c(=O)c2Br)cc1 ?
Result :: inactive

Query :: Hi, sorry to bother you, what did the test record for C/C=C/C(=O)OCc1csc(CC(=O)Nc2ccccc2C)n1 ?
Result :: inactive

Query :: Hi, sorry to bother you, what did the test record for O=C(c1ccc(OC2CCN(Cc3ccccn3)CC2)cc1)N1CCCCCC1 ?
Result :: inactive

Query :: Hi, sorry to bother you, what did the test record for C=CCNC(=S)NNC(=O)COc1c(Cl)cc(Cl)cc1Cl ?
Result :: inactive

Query :: Hi, sorry to bother you, what did the test record for CCC(C)Sc1nc2c(cnn2-c2ccc(F)cc2)c(=O)[nH]1 (stereo not given) ?
Result :: inactive

Query :: Hi, sorry to bother you, what did the test record for CC(=O)c1ccc(NC(=O)c2cc(-c3cccs3)on2)cc1 ?
Result :: inactive

Query :: Hi, sorry to bother you, what did the test record for COc1cccc(CNC(=O)CSc2c3c(nc4cc(Cl)ccc24)CCCC3)c1 ?
Result :: active

Query :: Hi, sorry to bother you, what did the test record for Cc1ccc(C2NC(=S)NC3=C2N2CCC3CC2)cc1 (stereo not given) ?
Result :: inactive

Query :: Hi, sorry to bother you, what did the test record for CCNC(=O)Cn1nc(C)n2c(cc3c(OC)cccc32)c1=O ?
Result :: inactive

Query :: Hi, sorry to bother you, what did the test record for CCc1nn(-c2cc(Oc3cccc4ccccc34)nc(-c3ccccc3)n2)c(N)c1C#N ?
Result :: active

Query :: Hi, sorry to bother you, what did the test record for CCN(CC)CCN(C(=O)c1cccc([N+](=O)[O-])c1)c1nc2ccc(OC)cc2s1 ?
Result :: inactive

====

- testDescription: qHTS for Inhibitors of human tyrosyl-DNA phosphodiesterase 1 (TDP1): qHTS in cells in absence of CPT; also: nearly all actives have a fitted effect of over 55% in size
- conditionNotes: DT40 Tdp1-/- hTDP1 cells, no CPT, ATP luminescence, 48 h
Hit rate of the full screen: of about 420,000 compounds, about 64,000 (15%) were called active. Not shown: some 27% with an inconclusive outcome. The call rests on the fitted dose curve; in most records, active means well fitted inhibition curve with a large enough effect; inconclusive means small, poorly fitted or top-dose-only effect; inactive means flat fitted curve, though single readings scatter. Only a sample is shown.
Write down the outcome that applies. Available outcomes: active, inactive

Query :: Hi, sorry to bother you, what did the test record for CCn1c(=O)cc(SCC(=O)NCc2ccc3c(c2)OCO3)c2ccccc21 ?
Result :: inactive

Query :: Hi, sorry to bother you, what did the test record for CC1CC2=C(CC1/C=N/NC(N)=S)C(C)(C)CCC2 (stereo not given) ?
Result :: active

Query :: Hi, sorry to bother you, what did the test record for CCCCNC(=O)C(C)N(CCN(C)C)C(=O)CCCN1C(=O)NC(c2ccc(Cl)cc2)C(C(=O)OCc2ccccc2)=C1C (stereo not given) ?
Result :: active

Query :: Hi, sorry to bother you, what did the test record for Nc1ncnc2c1ncn2[C@@H]1O[C@H](C(=O)N2CCSC2)[C@@H](O)[C@H]1O ?
Result :: inactive

Query :: Hi, sorry to bother you, what did the test record for CNC(=O)CN1C(=O)NC(c2ccccc2)(c2ccccc2)C1=O ?
Result :: inactive

Query :: Hi, sorry to bother you, what did the test record for COc1cccc(CNc2nc(NCc3cccs3)nc3ccsc23)c1 ?
Result :: active

Query :: Hi, sorry to bother you, what did the test record for CCOC(=O)CCCNC(=O)CN1C(=O)NC(CCc2ccccc2)C1=O (stereo not given) ?
Result :: inactive

Query :: Hi, sorry to bother you, what did the test record for CCc1c(C)n([O-])c2c([n+]1=O)CCCCC2 ?
Result :: inactive

Query :: Hi, sorry to bother you, what did the test record for Cc1cccc(-n2c(Cc3cc(=O)[nH]c(=O)[nH]3)nnc2SCC(=O)Nc2cccc(C(F)(F)F)c2)c1 ?
Result :: inactive

Query :: Hi, sorry to bother you, what did the test record for O=C(OCC(=O)N1CCCC1)c1ccco1 ?
Result :: inactive

Query :: Hi, sorry to bother you, what did the test record for CC1=C(C(=O)OCc2ccccc2)C(c2ccc(C(F)(F)F)cc2)NC(=O)N1CCCCCC(=O)O (stereo not given) ?
Result :: inactive

Query :: Hi, sorry to bother you, what did the test record for CC1=C(C(=O)OC(C)(C)C)C(c2ccc(Br)cc2)NC(=O)N1CCCC(=O)O (stereo not given) ?
Result :: inactive

Query :: Hi, sorry to bother you, what did the test record for CCCCNC(=O)C(C)N(CCN(C)C)C(=O)CCCCCN1C(=O)NC(c2ccc(Cl)cc2)C(C(=O)OCc2ccccc2)=C1C (stereo not given) ?
Result :: active

Query :: Hi, sorry to bother you, what did the test record for Cc1ccc(NC(=O)CSc2nnc(-c3cnccn3)n2Cc2ccco2)cc1C ?
Result :: inactive

Query :: Hi, sorry to bother you, what did the test record for O=C(CSc1nccn1Cc1ccc(Cl)cc1)NCc1ccccc1 ?
Result :: active
